Molecular target: A1 adenosine receptors (Rattus norvegicus)
Construct: A1 adenosine receptors in rat cerebral cortical membranes; from tissue; host or cells: rat cerebral cortex membranes
Sequence (P25099 1-326): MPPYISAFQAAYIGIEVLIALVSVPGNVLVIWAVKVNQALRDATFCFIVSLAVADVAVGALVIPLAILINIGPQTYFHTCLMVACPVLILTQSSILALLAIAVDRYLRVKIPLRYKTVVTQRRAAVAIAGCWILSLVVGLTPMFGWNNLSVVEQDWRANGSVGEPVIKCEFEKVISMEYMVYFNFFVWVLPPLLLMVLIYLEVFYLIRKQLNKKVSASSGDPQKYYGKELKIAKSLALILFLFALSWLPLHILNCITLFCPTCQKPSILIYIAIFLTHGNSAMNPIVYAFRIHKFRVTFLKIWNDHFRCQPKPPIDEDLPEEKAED
Experiment: Inhibition of binding of [3H]N6-phenylisopropyladenosine to A1 adenosine receptors in rat cerebral cortical membranes
Settings: rat cortical membranes, [3H]PIA; single determination in triplicate or average of three ± S.E.M.; read-out: Ki A1-receptors
pKi: −log10 of the molar value.

- MOL SMILES: "CCCn1c(=O)c2[nH]c(-c3ccc(OCC(=O)NCCNC(=O)CCCCCCC(=O)NCc4cccs4)cc3)nc2n(CCC)c1=O"
  TESTED TARGET: "A1 adenosine receptors (Rattus norvegicus)"
  pKi: 8.13
- MOL SMILES: "CCCn1c(=O)c2[nH]c(-c3ccc(OCC(=O)NCCNC(=O)Cc4cccs4)cc3)nc2n(CCC)c1=O"
  TESTED TARGET: "A1 adenosine receptors (Rattus norvegicus)"
  pKi: 7.74
- MOL SMILES: "CCCn1c(=O)c2[nH]c(-c3ccc(OCC(=O)NCCN)cc3)nc2n(CCC)c1=S"
  TESTED TARGET: "A1 adenosine receptors (Rattus norvegicus)"
  pKi: 8.57
- MOL SMILES: "Cn1c(=O)c2nc(-c3cccs3)[nH]c2n(C)c1=S"
  TESTED TARGET: "A1 adenosine receptors (Rattus norvegicus)"
  pKi: 6.66
- MOL SMILES: "CCCn1c(=O)c2[nH]c(-c3ccc(OCC(=O)NCCNC(=O)[C@H](N)CCCCN)cc3)nc2n(CCC)c1=O"
  TESTED TARGET: "A1 adenosine receptors (Rattus norvegicus)"
  pKi: 9.06
- MOL SMILES: "CCCn1c(=O)c2[nH]c(-c3ccc(OCC(=O)NCCN(C)C)cc3)nc2n(CCC)c1=S"
  TESTED TARGET: "A1 adenosine receptors (Rattus norvegicus)"
  pKi: 8.59
- MOL SMILES: "Cn1c(=O)c2[nH]c(C3CCCC3)nc2n(C)c1=S"
  TESTED TARGET: "A1 adenosine receptors (Rattus norvegicus)"
  pKi: 8.10
- MOL SMILES: "CCCn1c(=O)c2[nH]c(-c3ccc(OCC(=O)O)cc3)nc2n(CCC)c1=S"
  TESTED TARGET: "A1 adenosine receptors (Rattus norvegicus)"
  pKi: 7.27

---

Reported Ki (A2)/Ki (A1) values for a set of compounds
Molecular target: A1 adenosine receptors (Rattus norvegicus, UniProt P25099)
Construct: A1 adenosine receptors in rat cerebral cortical membranes; from tissue; host or cells: rat cerebral cortex membranes
Assay: Inhibition of binding of [3H]N6-phenylisopropyladenosine to A1 adenosine receptors in rat cerebral cortical membranes
Settings: ratio of A2 (rat striatum) to A1 (rat cortex) Ki
MEASURED ENDPOINT: Ki (A2)/Ki (A1)

- COMPOUND: "CCCn1c(=O)c2[nH]c(-c3ccc(OCC(=O)OCC)cc3)nc2n(CCC)c1=S [Compound 30]"
  TESTED TARGET: "A1 adenosine receptors (Rattus norvegicus, UniProt P25099)"
  RESULT QUALIFIER: ">"
  REPORTED RESULT: 740
- COMPOUND: "CCCn1c(=O)c2[nH]c(-c3ccc(OCC(=O)NCCNC(=O)[C@H](N)CCCCNC(=O)OCc4ccccc4)cc3)nc2n(CCC)c1=S [Compound 41]"
  TESTED TARGET: "A1 adenosine receptors (Rattus norvegicus, UniProt P25099)"
  RESULT QUALIFIER: "="
  REPORTED RESULT: 36
- COMPOUND: "Cn1c(=S)c2[nH]c(C3CCCC3)nc2n(C)c1=O [Compound 54]"
  TESTED TARGET: "A1 adenosine receptors (Rattus norvegicus, UniProt P25099)"
  RESULT QUALIFIER: "="
  REPORTED RESULT: 44.4
- COMPOUND: "CCCn1c(=O)c2[nH]c(-c3ccc(OCC(=O)NCCNC(=O)Cc4ccc(I)s4)cc3)nc2n(CCC)c1=O [Compound 48]"
  TESTED TARGET: "A1 adenosine receptors (Rattus norvegicus, UniProt P25099)"
  RESULT QUALIFIER: "="
  REPORTED RESULT: 10.3
- COMPOUND: "CCCn1c(=O)c2[nH]c(-c3ccc(OCC(=O)O)cc3)nc2n(CCC)c1=O [Compound 27]"
  TESTED TARGET: "A1 adenosine receptors (Rattus norvegicus, UniProt P25099)"
  RESULT QUALIFIER: "="
  REPORTED RESULT: 37.8
- COMPOUND: "CCCn1c(=O)c2[nH]c(-c3ccc(OCC(=O)NCCN(C)C)cc3)nc2n(CCC)c1=S [Compound 35]"
  TESTED TARGET: "A1 adenosine receptors (Rattus norvegicus, UniProt P25099)"
  RESULT QUALIFIER: "="
  REPORTED RESULT: 11
- COMPOUND: "CCn1c(=S)c2[nH]c(-c3ccccc3)nc2n(CC)c1=O [Compound 57]"
  TESTED TARGET: "A1 adenosine receptors (Rattus norvegicus, UniProt P25099)"
  RESULT QUALIFIER: "="
  REPORTED RESULT: 3.47
- COMPOUND: "CCCn1c(=O)c2[nH]c(C3CCCC3)nc2n(CCC)c1=S [Compound 14]"
  TESTED TARGET: "A1 adenosine receptors (Rattus norvegicus, UniProt P25099)"
  RESULT QUALIFIER: "="
  REPORTED RESULT: 479
- COMPOUND: "CCCn1c(=O)c2[nH]c(-c3cccs3)nc2n(CCC)c1=O [Compound 19]"
  TESTED TARGET: "A1 adenosine receptors (Rattus norvegicus, UniProt P25099)"
  RESULT QUALIFIER: "="
  REPORTED RESULT: 23.6
- COMPOUND: "CCCn1c(=O)c2[nH]c(-c3ccc(OCC(=O)OCC)cc3)nc2n(CCC)c1=O [Compound 29]"
  TESTED TARGET: "A1 adenosine receptors (Rattus norvegicus, UniProt P25099)"
  RESULT QUALIFIER: ">"
  REPORTED RESULT: 238
- COMPOUND: "CCCn1c(=O)c2[nH]c(-c3ccc(OCC(=O)NCCN)cc3)nc2n(CCC)c1=S [Compound 31]"
  TESTED TARGET: "A1 adenosine receptors (Rattus norvegicus, UniProt P25099)"
  RESULT QUALIFIER: "="
  REPORTED RESULT: 9.8
- COMPOUND: "CCCn1c(=O)c2[nH]c(-c3ccc(OCC(=O)NCCNC(=O)CCCCCCC(=O)NCc4cccs4)cc3)nc2n(CCC)c1=O [Compound 49]"
  TESTED TARGET: "A1 adenosine receptors (Rattus norvegicus, UniProt P25099)"
  RESULT QUALIFIER: "="
  REPORTED RESULT: 85
- COMPOUND: "Cn1c(=O)c2[nH]c(-c3ccco3)nc2n(C)c1=O [Compound 15, reference compound]"
  TESTED TARGET: "A1 adenosine receptors (Rattus norvegicus, UniProt P25099)"
  RESULT QUALIFIER: "="
  REPORTED RESULT: 7.94
- COMPOUND: "Cn1c(=S)c2[nH]c(-c3ccccc3)nc2n(C)c1=O [Compound 56]"
  TESTED TARGET: "A1 adenosine receptors (Rattus norvegicus, UniProt P25099)"
  RESULT QUALIFIER: "="
  REPORTED RESULT: 8.18
- COMPOUND: "Cn1c(=O)c2nc(-c3cccs3)[nH]c2n(C)c1=S [Compound 21]"
  TESTED TARGET: "A1 adenosine receptors (Rattus norvegicus, UniProt P25099)"
  RESULT QUALIFIER: "="
  REPORTED RESULT: 7.87
- COMPOUND: "Cn1c(=S)c2[nH]c(C3CCCC3)nc2n(C)c1=S [Compound 52]"
  TESTED TARGET: "A1 adenosine receptors (Rattus norvegicus, UniProt P25099)"
  RESULT QUALIFIER: "="
  REPORTED RESULT: 285
- COMPOUND: "CCCn1c(=O)c2[nH]c(-c3cccs3)nc2n(CCC)c1=S [Compound 22]"
  TESTED TARGET: "A1 adenosine receptors (Rattus norvegicus, UniProt P25099)"
  RESULT QUALIFIER: ">"
  REPORTED RESULT: 285
